Reported protein stability index values are given for each entry in this list.
B1: KLHDC10 (parent)
chain: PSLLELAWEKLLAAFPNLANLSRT

variants of: B1; test: protein stability index of a GFP-peptide fusion (GPS, HEK-293T) (PSI 1-6); higher = more stable; conditions: c terminus: a fixed tail appended;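 further: lentivirally expressed fusions sorted by FACS into six bins by GFP to DsRed ratio, PSI derived from sequencing read proportions per bin multiplied by bin number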
// no unit, no text: just the number

Field protein stability index (entry `P16M` ) reads 2.62

Field protein stability index (entry `L21K` ) reads 2.38

---
Field protein stability index (entry `P1E` ) reads 3.28

Field protein stability index (entry `A14V` ) reads 2.4

Where do the numbers come from? From the supplement of paper PMC10567573.
